EXPERIMENTAL DETAILS: Inhibition of CCR5 tropic HIV1 VB59 reverse transcriptase infected in human TZM-bl cells
Give pIC50 for every item shown.
Give bare numbers, as −log10 of the molar value.

For each of the molecules below, note its pIC50.
1. Cc1cc(C)c(Nc2nc(Cl)nc(Nc3ccc(C#N)nc3)n2)c(C)c1
2. Cc1cc(C)c(Nc2nc(N)nc(Nc3ccc(C#N)nc3)n2)c(C)c1

result:
1: 9.30; 2: 9.74

###

Give log10 of IC50 for every item shown.
EXPERIMENTAL DETAILS: Inhibition of HIV1 reverse transcriptase L100I mutant infected in human MT4 cells assessed as protection against virus-induced cytopathic effect by MTT assay
Quick note: numbers are log10 of IC50, with nM as the unit.

For each of the compounds below, note its log10 of IC50.
1. Cc1cc(C#N)cc(C)c1Nc1nc(Nc2ccc(C#N)cc2)ncc1C#N
2. Cc1cc(C#N)cc(C)c1Nc1ccnc(Nc2ccc(C#N)cc2)n1

result:
1: 1.96; 2: 1.53

For each of the compounds below, note its log10 of IC50.
1. Cc1cc(C#N)cc(C)c1Oc1ccnc(Nc2ccc(C#N)cc2)n1
2. Cc1cc(C#N)cc(C)c1Oc1nc(Nc2ccc(C#N)cc2)ncc1[N+](=O)[O-]
3. Cc1cc(C#N)cc(C)c1Nc1nc(Nc2ccc(C#N)cc2)ncc1Br

result:
1: 1.86; 2: 2.08; 3: 0.85

For each of the compounds below, note its log10 of IC50.
1. N#Cc1ccc(Nc2nc(N)nc(Cc3c(Cl)cccc3Cl)n2)cc1
2. C=Cc1cnc(Nc2ccc(C#N)cc2)nc1Nc1c(C)cc(C)cc1C
3. Cc1cnc(Nc2ccc(C#N)cc2)nc1Nc1c(C)cc(C#N)cc1C
4. N#Cc1ccc(Nc2nc(N)cc(Cc3c(Cl)cccc3Cl)n2)cc1
5. Cc1cc(C#N)cc(C)c1Nc1nc(Nc2ccc(C#N)cc2)ncc1Cl

result:
[2.60, 1.54, 1.20, 2.48, 0.72]

For each of the compounds below, note its log10 of IC50.
1. Cc1cc(C#N)cc(C)c1Oc1nc(Nc2ccc(C#N)cc2)ncc1N
2. Cc1cc(Br)cc(C)c1Sc1ccnc(Nc2ccc(C#N)cc2)n1

result:
1.20
2.24

query: log10 of IC50 lookup needed for N#Cc1ccc(Nc2cc(Cc3c(Cl)cccc3Cl)nc(N)n2)cc1 , thanks.
result: 4.98

###

EXPERIMENTAL DETAILS: Inhibition of HIV1 reverse transcriptase K103N mutant infected in human MT4 cells assessed as protection against virus-induced cytopathic effect by MTT assay
MEASUREMENT TYPE: pIC50
Answers are plain numbers, as −log10 of the molar value.

For each of the molecules below, note its pIC50.
1. Cc1cc(Br)cc(C)c1Sc1ccnc(Nc2ccc(C#N)cc2)n1
2. Cc1cc(C#N)cc(C)c1Oc1nc(Nc2ccc(C#N)cc2)ncc1N
3. Cc1cc(C#N)cc(C)c1Nc1ccnc(Nc2ccc(C#N)cc2)n1
4. CC(=O)Nc1cnc(Nc2ccc(C#N)cc2)nc1Oc1c(C)cc(C#N)cc1C
5. Cc1cc(C#N)cc(C)c1Oc1ccnc(Nc2ccc(C#N)cc2)n1

result:
1. 7.41
2. 8.89
3. 8.72
4. 8.48
5. 8.57

For each of the molecules below, note its pIC50.
1. Cc1cnc(Nc2ccc(C#N)cc2)nc1Nc1c(C)cc(C#N)cc1C
2. C#Cc1cnc(Nc2ccc(C#N)cc2)nc1Nc1c(C)cc(C)cc1C
3. Cc1cc(C#N)cc(C)c1Nc1nc(Nc2ccc(C#N)cc2)ncc1Br
4. C=Cc1cnc(Nc2ccc(C#N)cc2)nc1Nc1c(C)cc(C)cc1C
5. N#Cc1ccc(Nc2cc(Cc3c(Cl)cccc3Cl)nc(N)n2)cc1

result:
[8.77, 8.21, 9.40, 8.24, 4.48]
